# TARGET OF ASSAY: TR-α (Homo sapiens, UniProt P10827)
# Sequence (P10827 1-410 isoform P10827-2): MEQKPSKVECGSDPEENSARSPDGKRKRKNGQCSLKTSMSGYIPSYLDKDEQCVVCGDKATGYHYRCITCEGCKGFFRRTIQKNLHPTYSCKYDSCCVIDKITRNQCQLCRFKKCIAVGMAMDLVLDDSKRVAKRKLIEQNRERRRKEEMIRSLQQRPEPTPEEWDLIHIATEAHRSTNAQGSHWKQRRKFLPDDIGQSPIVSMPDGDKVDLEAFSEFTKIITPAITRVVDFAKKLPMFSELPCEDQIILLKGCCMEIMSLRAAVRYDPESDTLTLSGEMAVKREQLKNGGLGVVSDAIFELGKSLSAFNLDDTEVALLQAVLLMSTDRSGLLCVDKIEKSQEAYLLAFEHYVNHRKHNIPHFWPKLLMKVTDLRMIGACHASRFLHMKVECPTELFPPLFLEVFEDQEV
# ASSAY: In vitro TR-α activity (in-house protocol)
# Format: cell-based
# TEST SETTINGS: Conc. 1000 nM; read-out: TR-α Fold Induction w.r.t T3(100 nm)
Field: fold induction at 1 µM. Provide a value for each of the compounds that follow.
One number for each entry.

For orientation, consider the following solved cases.
O=C(O)CON=Cc1cc(Br)c(Oc2ccc(O)c(C(O)c3ccc(Br)cc3)c2)c(Br)c1 (centres unmarked) [Example 32]: 69.8
CC(ON=Cc1cc(Br)c(Oc2ccc(O)c(C(C)(C)C)c2)c(Br)c1)C(=O)O (centres unmarked) [Example 24]: 121
O=C(O)CON=Cc1cc(Br)c(Oc2ccc(O)c(C(=O)c3cccc(Cl)c3)c2)c(Br)c1 [Example 33]: 74
CC(C)c1cc(Oc2c(Cl)cc(C=NOCC(=O)O)cc2Cl)ccc1O [Example 1]: 99
CC(ON=Cc1cc(Br)c(Oc2ccc(O)c(C(O)c3cccc(Cl)c3)c2)c(Br)c1)C(=O)O (centres unmarked) [Example 34]: 39.8

Field: fold induction at 1 µM. Fill in for each record below.
1. CCC(ON=Cc1cc(Br)c(Oc2ccc(O)c(C(C)C)c2)c(Br)c1)C(=O)O (centres unmarked) [Example 13]
2. O=C(O)CON=Cc1cc(Br)c(Oc2ccc(O)c(C(=O)c3ccc(Br)cc3)c2)c(Br)c1 [Example 31]
3. CCc1cc(Oc2c(Br)cc(C=NOC(C)C(=O)O)cc2Br)ccc1O (centres unmarked) [Example 25]
4. CC(ON=Cc1cc(Br)c(Oc2ccc(O)c(-c3ccccc3)c2)c(Br)c1)C(=O)O (centres unmarked) [Example 11]
5. CC(ON=Cc1cc(Br)c(Oc2ccc(O)c(S(=O)(=O)NC3CCCCC3)c2)c(Br)c1)C(=O)O (centres unmarked) [Example 39]
6. O=C(O)CON=Cc1cc(Br)c(Oc2ccc(O)c(C(O)c3ccc(Cl)cc3)c2)c(Br)c1 (centres unmarked) [Example 29]

[56.9, 39.2, 134, 49.4, 29.5, 64.2]

Give fold induction at 1 µM for each listed item.
1. CC(ON=Cc1cc(Br)c(Oc2ccc(O)c(C(=O)c3ccc(Cl)cc3)c2)c(Br)c1)C(=O)O (centres unmarked) [Example 26]
2. CCC(C)c1cc(Oc2c(Br)cc(C=NOC(C)(C)C(=O)O)cc2Br)ccc1O (centres unmarked) [Example 15]
3. O=C(O)CON=Cc1cc(Br)c(Oc2ccc(O)c(S(=O)(=O)N3CCCC3)c2)c(Br)c1 [Example 41]

[64.5, 123, 46.1]

Could I get fold induction at 1 µM for every one of these entries?
1. CCC(C)c1cc(Oc2c(Br)cc(C=NOCC(=O)O)cc2Br)ccc1O (centres unmarked) [Example 6]
2. O=C(O)CON=Cc1cc(Cl)c(Oc2ccc(O)c(Cc3ccccc3)c2)c(Cl)c1 [Example 5]
3. CC(ON=Cc1cc(Br)c(Oc2ccc(O)c(S(=O)(=O)N3CCCC3)c2)c(Br)c1)C(=O)O (centres unmarked) [Example 42]
4. CCC(ON=Cc1cc(Br)c(Oc2ccc(O)c(C(C)CC)c2)c(Br)c1)C(=O)O (centres unmarked) [Example 19]
5. O=C(O)CON=Cc1cc(Br)c(Oc2ccc(O)c(C(=O)c3ccc(Cl)cc3)c2)c(Br)c1 [Example 28]

1: 64.9; 2: 57; 3: 91.4; 4: 109; 5: 54.5

Memo: CC(C)(ON=Cc1cc(Br)c(Oc2ccc(O)c(-c3ccccc3)c2)c(Br)c1)C(=O)O [Example 20] , reported fold induction at 1 µM: 74.3
